viability, T/C listing for selected molecules.
test system: 171881-019-R-J1-PDC multicell spheroid viability; assay: Anticancer human tumor 171881-019-R-J1-PDC patient-derived invasive breast carcinoma cell line growth inhibition [IpAb]; conditions: second compound 3.16 µM; first compound 0.1 µM; hits give low values

- molecule: "C=CC(=O)N1CCN(c2nc(=O)n(-c3c(C)ccnc3C(C)C)c3nc(-c4c(O)cccc4F)c(F)cc23)C(C)C1 (stereo not drawn) + CC(C)NCC(C(=O)N1CCN(c2ncnc3c2C(C)CC3O)CC1)c1ccc(Cl)cc1"
  viability, T/C, %: 11.7
- molecule: "Cn1ncnc1[C@H]1c2n[nH]c(=O)c3cc(F)cc(c23)N[C@@H]1c1ccc(F)cc1 + CC(C)NCC(C(=O)N1CCN(c2ncnc3c2C(C)CC3O)CC1)c1ccc(Cl)cc1"
  viability, T/C, %: 7.64
- molecule: "COc1c(OCCCN2CCOCC2)ccc2c3n(c(=NC(=O)c4cnc(N)nc4)nc12)CCN3 + CC(C)NCC(C(=O)N1CCN(c2ncnc3c2C(C)CC3O)CC1)c1ccc(Cl)cc1"
  viability, T/C, %: 1.68

----------
test system: 171881-019-R-J1-PDC multicell spheroid viability; assay: Anticancer human tumor 171881-019-R-J1-PDC cell line growth inhibition [IpAb]; conditions: second compound 3.16 µM; first compound 3.16 µM; hits give low values;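 further: spheroids exposed to the agents for seven days before readout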
A collection of compounds and their measured viability, T/C
quantity_kind: viability, T/C (%)

- compound: "C=CC(=O)N1CCN(c2nc(=O)n(-c3c(C)ccnc3C(C)C)c3nc(-c4c(O)cccc4F)c(F)cc23)C(C)C1 (configuration not stated) + CC(C)NCC(C(=O)N1CCN(c2ncnc3c2C(C)CC3O)CC1)c1ccc(Cl)cc1"
  reported_measurement: 8.09
- compound: "CC1(C)CCC(CN2CCN(c3ccc(C(=O)NS(=O)(=O)c4ccc(NCC5CCOCC5)c([N+](=O)[O-])c4)c(Oc4cnc5[nH]ccc5c4)c3)CC2)=C(c2ccc(Cl)cc2)C1 + CC(C)NCC(C(=O)N1CCN(c2ncnc3c2C(C)CC3O)CC1)c1ccc(Cl)cc1"
  reported_measurement: 12.6
- compound: "C=CCn1c(=O)c2cnc(Nc3ccc(N4CCN(C)CC4)cc3)nc2n1-c1cccc(C(C)(C)O)n1 + CC(C)NCC(C(=O)N1CCN(c2ncnc3c2C(C)CC3O)CC1)c1ccc(Cl)cc1"
  reported_measurement: 7.31
- compound: "Cn1ncc(Cl)c1-c1cc(C(=O)NC(CN)Cc2cccc(F)c2)sc1Cl (configuration not stated) + CC(C)NCC(C(=O)N1CCN(c2ncnc3c2C(C)CC3O)CC1)c1ccc(Cl)cc1"
  reported_measurement: 3.38
- compound: "CCCS(=O)(=O)Nc1ccc(F)c(C(=O)c2c[nH]c3ncc(-c4ccc(Cl)cc4)cc23)c1F + CC(C)NCC(C(=O)N1CCN(c2ncnc3c2C(C)CC3O)CC1)c1ccc(Cl)cc1"
  reported_measurement: 21
- compound: "Cc1nc(NC(=O)N2CCCC2C(N)=O)sc1-c1ccnc(C(C)(C)C(F)(F)F)c1 (configuration not stated) + CC(C)NCC(C(=O)N1CCN(c2ncnc3c2C(C)CC3O)CC1)c1ccc(Cl)cc1"
  reported_measurement: 3.24
- compound: "Cn1nccc1Nc1nccc(-c2ccn(C(CO)c3ccc(Cl)c(F)c3)c(=O)c2)n1 (configuration not stated) + CC(C)NCC(C(=O)N1CCN(c2ncnc3c2C(C)CC3O)CC1)c1ccc(Cl)cc1"
  reported_measurement: 0.69
